assayed system: IRAK1 (Homo sapiens, UniProt P51617)
Construct: purchased Upstate, Millipore Bioscience Division (KinaseProfiler service)
Sequence (P51617 whole entry): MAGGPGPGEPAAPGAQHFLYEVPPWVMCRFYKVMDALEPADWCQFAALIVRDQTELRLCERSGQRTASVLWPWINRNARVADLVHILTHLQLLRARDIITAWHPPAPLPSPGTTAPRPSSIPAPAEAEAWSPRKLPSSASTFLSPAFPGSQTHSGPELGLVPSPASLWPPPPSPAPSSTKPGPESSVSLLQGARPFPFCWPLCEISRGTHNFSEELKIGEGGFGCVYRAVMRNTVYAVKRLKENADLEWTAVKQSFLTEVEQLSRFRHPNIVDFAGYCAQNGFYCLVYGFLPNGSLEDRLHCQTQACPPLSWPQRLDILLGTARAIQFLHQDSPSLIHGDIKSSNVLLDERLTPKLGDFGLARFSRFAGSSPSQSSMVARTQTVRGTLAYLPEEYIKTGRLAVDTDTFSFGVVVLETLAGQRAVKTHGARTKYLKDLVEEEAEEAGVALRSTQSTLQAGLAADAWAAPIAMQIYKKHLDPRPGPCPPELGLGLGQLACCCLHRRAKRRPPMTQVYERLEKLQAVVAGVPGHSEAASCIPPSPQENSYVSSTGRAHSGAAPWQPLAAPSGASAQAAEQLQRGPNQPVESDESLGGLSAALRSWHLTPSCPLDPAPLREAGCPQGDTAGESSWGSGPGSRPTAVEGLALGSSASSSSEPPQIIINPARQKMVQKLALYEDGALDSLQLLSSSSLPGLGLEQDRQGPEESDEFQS
experimental details: Kinase panel screen, IRAK1
Format: biochemical
condition label: 1 μM test compound, 10 μM ATP
For each entry below, report its Percent inhibition, IRAK1 value.
Give the value in % but do not write % after it.

Q: Any idea what Percent inhibition, IRAK1 was measured for OCCn1ccc2cc(CN3CC[C@@H](Nc4cccc5cnccc45)C3)ccc21 [Compound 2.066] ?
Result: 74

Q: Any idea what Percent inhibition, IRAK1 was measured for NC(=O)Cn1ccc2cc(CN3CCC[C@@H](Nc4ccc5[nH]ncc5c4)C3)ccc21 [Compound 1.162] ?
Result: 100

Q: Any idea what Percent inhibition, IRAK1 was measured for Cc1ccc(CN2CCC[C@@H](Nc3ccc4[nH]ncc4c3)C2)cc1OCCO [Compound 1.161] ?
Result: 106

Q: Any idea what Percent inhibition, IRAK1 was measured for NC(=O)Cn1ccc2cc(CN3CC[C@@H](Nc4cccc5cnccc45)C3)ccc21 [Compound 2.059] ?
Result: 87

---

assayed system: Mnk2 (Homo sapiens, UniProt Q9HBH9)
Construct: purchased Upstate, Millipore Bioscience Division (KinaseProfiler service)
Sequence (Q9HBH9 whole entry): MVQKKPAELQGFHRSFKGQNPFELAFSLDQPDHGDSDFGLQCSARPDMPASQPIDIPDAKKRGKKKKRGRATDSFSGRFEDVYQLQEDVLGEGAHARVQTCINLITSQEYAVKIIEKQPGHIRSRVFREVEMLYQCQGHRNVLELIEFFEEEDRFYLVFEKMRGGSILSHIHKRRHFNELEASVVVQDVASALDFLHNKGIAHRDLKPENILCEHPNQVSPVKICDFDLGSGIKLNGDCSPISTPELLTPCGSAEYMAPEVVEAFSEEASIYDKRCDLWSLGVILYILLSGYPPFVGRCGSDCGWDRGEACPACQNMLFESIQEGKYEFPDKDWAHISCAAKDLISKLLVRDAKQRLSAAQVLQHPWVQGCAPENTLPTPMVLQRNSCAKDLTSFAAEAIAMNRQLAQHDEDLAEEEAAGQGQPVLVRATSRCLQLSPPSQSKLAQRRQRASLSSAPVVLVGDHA
experimental details: Kinase panel screen, Mnk2
Type: biochemical
condition label: 10 μM test compound, 10 μM ATP
parameter measured: Percent inhibition, Mnk2

Q: Any idea what Percent inhibition, Mnk2 was measured for Cc1ccc(CN2CCC[C@@H](Nc3ccc4[nH]ncc4c3)C2)cc1OCCO [Compound 1.161] ?
Result: 106%

Q: Any idea what Percent inhibition, Mnk2 was measured for NC(=O)Cn1ccc2cc(CN3CC[C@@H](Nc4cccc5cnccc45)C3)ccc21 [Compound 2.059] ?
Result: 12%

Q: Any idea what Percent inhibition, Mnk2 was measured for NC(=O)Cn1ccc2cc(CN3CCC[C@@H](Nc4ccc5[nH]ncc5c4)C3)ccc21 [Compound 1.162] ?
Result: 65%

Q: Any idea what Percent inhibition, Mnk2 was measured for OCCn1ccc2cc(CN3CC[C@@H](Nc4cccc5cnccc45)C3)ccc21 [Compound 2.066] ?
Result: 54%
